Numbers sourced from paper PMC9405596.

method description: MTT cytotoxicity assay, murine macrophages
Format: cell-based
measurement parameters: mouse, RAW 264.7 macrophage cells, RAW 264.7, 48 h
Each record's CC50 at 48 h is compared with band A = under 80 µM, band B = from 80 µM up to 100 µM, band C = 100 µM and over to give its class.

Q: Assign a category based on measured CC50 at 48 h for `COc1cccc(C(c2c(C)nn(-c3ccccc3)c2O)c2c(C)nn(-c3ccccc3)c2O)c1` and give only the class name.
A: band C

Q: Assign a category based on measured CC50 at 48 h for `Cc1nn(-c2ccccc2)c(O)c1C(c1ccccc1C(F)(F)F)c1c(C)nn(-c2ccccc2)c1O` and give only the class name.
A: band B
